molecular target: Mt ODCase (Methanothermobacter thermautotrophicus, UniProt O26232); assay: Reversible, competitive inhibition of Mt ODCase; type: biochemical, Methanobacterium thermoautotrophicum; settings: ODCase Ki, Mt, competitive inhibition, ITC, 55°C
Sequence (O26232 whole entry): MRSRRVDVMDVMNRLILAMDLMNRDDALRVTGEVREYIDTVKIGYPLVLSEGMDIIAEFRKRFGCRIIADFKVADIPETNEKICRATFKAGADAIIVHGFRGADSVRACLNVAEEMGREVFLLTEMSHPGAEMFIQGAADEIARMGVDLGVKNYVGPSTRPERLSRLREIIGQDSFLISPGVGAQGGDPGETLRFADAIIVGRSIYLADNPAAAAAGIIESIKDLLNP

{"chemical-structure": "N#Cc1cc(=O)[nH]c(=O)n1[C@@H]1O[C@H](COP(=O)(O)O)[C@@H](O)[C@H]1F", "target-entity": "Mt ODCase (Methanothermobacter thermautotrophicus, UniProt O26232)", "readout-unit": "µM", "Ki": 37}
{"chemical-structure": "N#Cc1cn([C@@H]2O[C@H](COP(=O)(O)O)[C@@H](O)[C@H]2F)c(=O)[nH]c1=O", "target-entity": "Mt ODCase (Methanothermobacter thermautotrophicus, UniProt O26232)", "readout-unit": "µM", "Ki": 360}
{"chemical-structure": "NC(=O)c1cc(=O)[nH]c(=O)n1[C@@H]1O[C@H](COP(=O)(O)O)[C@@H](O)[C@H]1F", "target-entity": "Mt ODCase (Methanothermobacter thermautotrophicus, UniProt O26232)", "readout-unit": "µM", "Ki": 3320}

The reported numbers originate from paper PMC3083246.
